# assayed-system: human FLT3 (hFLT3) (human) (UniProt P36888)
# Sequence (P36888 27-543 limits assumed): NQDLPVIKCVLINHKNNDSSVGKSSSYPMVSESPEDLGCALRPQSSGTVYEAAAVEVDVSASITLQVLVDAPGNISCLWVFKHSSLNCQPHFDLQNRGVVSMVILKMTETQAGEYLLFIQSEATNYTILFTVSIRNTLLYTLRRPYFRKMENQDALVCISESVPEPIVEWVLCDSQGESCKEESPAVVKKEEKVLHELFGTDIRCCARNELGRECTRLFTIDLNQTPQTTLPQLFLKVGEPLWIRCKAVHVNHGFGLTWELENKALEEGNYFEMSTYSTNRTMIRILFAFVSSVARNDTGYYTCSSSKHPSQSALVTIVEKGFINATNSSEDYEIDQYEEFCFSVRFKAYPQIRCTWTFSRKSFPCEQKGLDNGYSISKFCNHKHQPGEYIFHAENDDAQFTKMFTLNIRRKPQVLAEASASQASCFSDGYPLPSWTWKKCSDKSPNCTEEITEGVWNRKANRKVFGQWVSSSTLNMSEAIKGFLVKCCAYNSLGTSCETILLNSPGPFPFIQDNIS
# experimental-details: SPR, Table 6, scFv format; set-up and antigen species not described
In this section, each of the binders is paired with its reported kon.
measured-parameter: kon (M⁻¹ s⁻¹)

1) P1B4 (scFv format) (scFv, part only; not given: linker, domain order, tags, V domains shown, not shown: another chain or arm of the molecule; small tags and cut ends) VH: QVQLVQSGAEVKKPGSSVKVSCKASGGVFSRYALSWVRQAPGQGLEWMGGIIPMLGFANYAQKFQGRVTITADESTSTAYMELSSLRSEDTAVYYCATLDFGALDYWGQGTLVTVSS VL: EIVLTQSPGTLSLSPGERATLSCRASQSVPNEQLAWYQQKPGQAPRLLIYDASSRATGIPDRFSGSGSGTDFTLTISRLEPEDFAVYYCQQYGSPPLTFGQGTKVEIK | 120000
2) P7H3 (scFv format) (scFv, part only; not given: linker, domain order, tags, V domains shown, not shown: another chain or arm of the molecule; small tags and cut ends) VH: EVQLLESGGGLVQPGGSLRLSCAASGFTFSSYAMHWVRQAPGKGLEWVSAISGSGGSTYYADSVKGRFTISRDNSKNTLYLQMNSLRAEDTAVYYCARGTRWWWGDAFDHWGQGTLVTVSS VL: QSVLTQPPSVSVAPGKTARITCGGNNIGSKSVHWYQQKPGQAPVLVIYYDSDRPSGIPERFSGSNSGNTATLTISRVEAGDEADYYCQVWDSSTAWVFGGGTKLTVL | 205000
